Entries and their measured Kp at 0.5 h follow.
Assay: Ratio of drug level in brain to plasma of african green monkey at 2 mg/kg, iv after 30 mins by LC/MS/MS analysis
Format: ADME, organism-based
Set-up: dose 2 mg/kg, route intravenous
Conditions: chlorocebus aethiops, brain and plasma
Give the figure only, with no unit attached.

C[C@@H](NC(=O)C1(O)CCC(F)(F)CC1)c1ncc(-c2cc(Cl)cc(F)c2-c2nnn(C)n2)cc1F
0.63

Proceeding to the next compound to report its Kp at 0.5 h.
INPUT: Name the recorded Kp at 0.5 h of the compound listed here: CC(NC(=O)C1(O)CCC(F)(F)C1)c1ncc(-c2cc(Cl)cc(F)c2-c2nnn(C)n2)cc1F (stereo in doubt; 11g)
OUTPUT: 0.55
